Biological target: Anti-CD28 Fab (SEQ ID NOs: 202, 203)
Sequence (VH, as listed by the source, chain 1 of 2): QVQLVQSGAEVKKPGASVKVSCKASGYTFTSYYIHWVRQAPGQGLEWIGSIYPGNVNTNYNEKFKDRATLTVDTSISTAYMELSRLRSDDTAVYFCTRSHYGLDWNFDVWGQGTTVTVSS
Sequence (VL, as listed by the source, chain 2 of 2): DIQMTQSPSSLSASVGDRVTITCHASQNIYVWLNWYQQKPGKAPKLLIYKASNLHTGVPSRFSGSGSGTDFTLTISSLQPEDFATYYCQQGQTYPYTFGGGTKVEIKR
Test: phage binding ELISA on captured Fab;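 note: clonal phage supernatants added briefly to wells pre-incubated with CD28 antigen or with blocking buffer only, then washed, bound phage read by ELISA using HRP-coupled anti-M13 antibody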
measuredParameter: Anti-CD28 Fab signal
Respond using a number only.

Would you please look over these solved cases?
binder	measuredParameter	quantitativeResult
YCEGHLPEYMFKCL [Phage-58]	Anti-CD28 Fab signal	2.4
YCEGHAAEYMEKCL [Phage-104]	Anti-CD28 Fab signal	2.3
YCEGHTVEYMAKCL [Phage-149]	Anti-CD28 Fab signal	2.2

query: Report measured Anti-CD28 Fab signal; entry is YCEGHAAEYMTKCL [Phage-143]
result: 2.22

query: Report measured Anti-CD28 Fab signal; entry is YWSCFQIPFTCFYF [Phage-1]
result: 1.44

query: Report measured Anti-CD28 Fab signal; entry is YCDGHSSEYMAKCL [Phage-113]
result: 2.28

query: Report measured Anti-CD28 Fab signal; entry is YCEGHSPQYMWKCL [Phage-142]
result: 2.22

query: Report measured Anti-CD28 Fab signal; entry is YCEGHLPEYLGKCL [Phage-33]
result: 1.23
